# system under test: T1, human TMEM106B (human, UniProt Q9NUM4 2-274)
# T1 construct: Full-length, on transiently transfected HEK293 cells, or natively expressed on HeLa, U251 and A549 cells; also called huTMEM106B; huTMEM
# experiment summary: FACS A549
assay readout: MFI
Please reply with the value in numeric form only.

Here are 4 binders together with their reported answers.
binder	MFI
anti-TMEM106B antibody TM-21 (antibody, V domains shown) VH: EVQLVESGGGLVKPGGSLKLSCAASGFTFSNYAMSWVRETPEKRLEWVAFISDGGGYIYYADNVKDRFTISRDNAKNNLYLQMRHLKSEDTAMYYCARDGGTGFTYWGQGTLVTVSV VL: DIVMTQAAFSNPVTLGTSASISCRSSKSLLHSNGITYLFWYLQKPGQSPQLLIYQMSNLASGVPDRFSSSGSGTDFTLRISRVEAEDVGVYYCVQNLELPYTFGGGTKLEIK	1030
anti-TMEM106B antibody TM-23 (antibody, V domains shown) VH: QVQLQQSGAELIRPGTSVKVSCKASGYAFTNYLIEWVKKRPGQGLEWIGVINPGSGITNYNEKFKGKATLTADKSSSTAYMQLSSLTSEDSAVYFCARSDFITTVVADYWGQGTTVTVSS VL: DIVVTQTPLSLPVSFGDQVSISCRSSQSLTNYYGNTYLSWYLHKPGQSPQLLIYGISNRFSGVPDRFSGSGSGTDFTLKISTIKPEDLGMYYCLQGTHQPRTFGGGTKLEIK	1090
anti-TMEM106B antibody TM-22 (antibody, V domains shown) VH: QVQLQQSGPELVKPGASVKISCKASGYRFTSYYIHWVKQRPGQGLEWIGWIYPGNGITNYNEKFKGKATLTADTSSSTAYMQLSSLTSEDSAVYYCASPYYGIRNCYFDVWGTGTTVTVSS VL: DVLMTQTPLSLPVSLGDHASISCRSGQSIVHSNGNTYLEWYLQKPGQSPKLLIYKVSNRFSGVPDRFSGSGSGTDFTLKISRVEAEDLGIYYCFQGSHVPWTFGGGTKLEIK	1570
anti-TMEM106B antibody TM-37 (antibody, V domains shown) VH: QVQLQQSGAELAKPGASVKLSCKASGYTFTSYWMHWVKQRPGQGLEWIGYVNPSSGYTKNNQKFKDKVTLTADKSSSTAYMQLSSLTYEDSAVYYCAREGGSISDWYFDVWGTGTTVTVSS VL: DIVMTQAAPSVPVTPGESVSISCRSSKSLLHSNGNTYSYWFLQRPGQSPQLLIYRMSNLASGVPDRFSGSGSGTAFTLRISRVEAEDVGVYYCMQHLEYPYTFGGGTKLEIK	1040

Please examine the following record next.
Ask: Report MFI for anti-TMEM106B antibody TM-1 (antibody, V domains shown) VH: QVQLQQSGAELVRPGTSVKVSCKASGYAFTNYLIEWVKQRPGQGLEWIGVINPGSGGTKYNEKLKGKATLTADKSSSTAYMQLSSLTSVDSAVYFCARRGYTIYDFYAMDYWGQGTSVTVSS VL: DVLMTQTPLSLPVSLGDHASISCRSSQSIVYNNGNTYLEWYLQKPGQSPKLLIYKVSNRFSGVPDRFSGSGSGTDFTLKISRVEAEDLGVYYCFQVSHVPFTFGSGTKLEIK please.
Result: 1460
